# test_system: T1, human GFRα3 expressed with a C-terminal myc-myc-hexahistidine tag (human, UniProt O60609 32-374, biotinylated (sites not given) in ELISA format 2 and in the Octet cross-competition; not in SPR)
# T1 construct: also called hGFRα3-mmh; hGFRα3-mmH
# T1 sequence (O60609 other isoform, or with tags, fused parts or gaps limits assumed): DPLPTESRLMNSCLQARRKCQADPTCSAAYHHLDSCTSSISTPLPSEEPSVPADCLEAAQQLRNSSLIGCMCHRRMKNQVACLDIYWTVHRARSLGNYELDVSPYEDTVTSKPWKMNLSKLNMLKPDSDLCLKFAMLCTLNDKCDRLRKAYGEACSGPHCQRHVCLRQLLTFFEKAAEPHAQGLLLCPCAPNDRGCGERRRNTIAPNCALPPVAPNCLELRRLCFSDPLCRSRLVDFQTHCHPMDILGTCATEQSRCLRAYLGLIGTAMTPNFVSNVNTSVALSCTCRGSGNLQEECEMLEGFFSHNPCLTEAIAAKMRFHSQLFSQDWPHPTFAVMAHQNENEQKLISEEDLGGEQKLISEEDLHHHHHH
# procedure_text: Octet cross-competition; biotin-hGFRα3-mmH pre-saturated with first antibody H4H2292S
Please go through the items and note down their binding response of second antibody (nm).
Answers are plain numbers, in nm.

Previously resolved entries follow.
binder | unit_label | meas_value
H4H2352S (antibody, human IgG4, V domains shown, human IgG4 Fc (H4H); also called H4H2352S-1) VH: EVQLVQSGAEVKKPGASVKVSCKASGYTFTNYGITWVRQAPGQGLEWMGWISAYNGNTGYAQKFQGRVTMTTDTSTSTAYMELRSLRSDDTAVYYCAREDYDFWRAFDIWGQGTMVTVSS VL: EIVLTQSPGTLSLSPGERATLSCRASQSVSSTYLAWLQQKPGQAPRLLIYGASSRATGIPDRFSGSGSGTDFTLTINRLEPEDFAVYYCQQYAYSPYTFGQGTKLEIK | nm | 0.34
H4H2357S (antibody, human IgG4, V domains shown, human IgG4 Fc (H4H)) VH: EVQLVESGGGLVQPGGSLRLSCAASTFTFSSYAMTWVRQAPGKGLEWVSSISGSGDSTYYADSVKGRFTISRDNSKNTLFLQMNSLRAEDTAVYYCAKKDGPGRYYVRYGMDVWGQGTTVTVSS VL: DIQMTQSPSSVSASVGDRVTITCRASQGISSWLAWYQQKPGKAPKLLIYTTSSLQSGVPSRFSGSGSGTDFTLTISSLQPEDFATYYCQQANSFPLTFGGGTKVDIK | nm | 2.43
H4H2243N2 (antibody, human IgG4, V domains shown, human IgG4 Fc (H4H)) VH: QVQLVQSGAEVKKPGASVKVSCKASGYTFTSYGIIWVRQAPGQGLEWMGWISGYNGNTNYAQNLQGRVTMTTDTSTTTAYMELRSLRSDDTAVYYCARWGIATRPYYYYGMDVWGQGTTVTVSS VL: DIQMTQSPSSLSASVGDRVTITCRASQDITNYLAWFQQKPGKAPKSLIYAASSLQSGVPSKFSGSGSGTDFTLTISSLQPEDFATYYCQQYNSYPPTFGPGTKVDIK | nm | 1.91
H4H2342P (antibody, human IgG4, V domains shown, human IgG4 Fc (H4H)) VH: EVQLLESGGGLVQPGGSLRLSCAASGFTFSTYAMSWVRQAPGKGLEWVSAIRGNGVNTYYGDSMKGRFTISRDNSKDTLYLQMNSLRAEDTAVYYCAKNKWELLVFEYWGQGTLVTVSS VL: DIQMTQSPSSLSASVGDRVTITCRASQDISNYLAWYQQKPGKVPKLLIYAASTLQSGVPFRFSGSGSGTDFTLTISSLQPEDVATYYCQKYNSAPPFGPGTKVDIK | nm | 2.16

Now for another entry.
# binding response of second antibody (nm) (binder: H4H2291S (antibody, human IgG4, V domains shown, human IgG4 Fc (H4H)) VH: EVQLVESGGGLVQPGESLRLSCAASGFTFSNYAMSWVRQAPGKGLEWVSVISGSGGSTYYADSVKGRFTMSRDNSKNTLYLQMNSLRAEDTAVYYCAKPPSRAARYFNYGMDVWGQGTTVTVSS VL: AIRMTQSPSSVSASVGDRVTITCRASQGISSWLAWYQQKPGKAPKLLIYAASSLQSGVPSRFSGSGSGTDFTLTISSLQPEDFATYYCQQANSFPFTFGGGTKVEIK ) is 2.81
